Values from patent US20220356255A1

Target: T1, human PD-L1 on cells (human, UniProt Q9NZQ7 19-290)
T1 construct: Endogenous on MDA-MB-231 cells or transfected into HEK293FF cells (Sino Biological plasmid); the assay field says which; also called native PD-L1 on MDA-MB-231 cells; PD-L1 expressing MDA-MB-231 cells
T1 sequence (Q9NZQ7 19-290 limits assumed): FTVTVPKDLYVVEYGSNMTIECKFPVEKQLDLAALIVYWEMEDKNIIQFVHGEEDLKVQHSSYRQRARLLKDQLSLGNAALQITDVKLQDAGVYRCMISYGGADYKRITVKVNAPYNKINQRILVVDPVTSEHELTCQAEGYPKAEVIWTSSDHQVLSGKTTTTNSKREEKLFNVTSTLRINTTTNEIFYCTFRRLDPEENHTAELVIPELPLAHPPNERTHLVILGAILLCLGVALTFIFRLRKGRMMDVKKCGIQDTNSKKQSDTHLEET
Test: flow cytometry on MDA-MB-231 cells, Krebs buffer; ratio of EC50 values
QUANTITY KIND: Ratio pH 6:7.4

## Task Please supply the value of reported Ratio pH 6:7.4 for the item Fab 8D04 (Fab, V domains shown, Purified Fab prepared from IgG with the Pierce kit; also called 8D04 Fab) VH: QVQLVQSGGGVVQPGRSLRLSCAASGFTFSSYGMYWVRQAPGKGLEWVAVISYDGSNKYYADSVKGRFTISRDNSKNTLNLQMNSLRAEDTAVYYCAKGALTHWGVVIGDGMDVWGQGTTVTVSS VL: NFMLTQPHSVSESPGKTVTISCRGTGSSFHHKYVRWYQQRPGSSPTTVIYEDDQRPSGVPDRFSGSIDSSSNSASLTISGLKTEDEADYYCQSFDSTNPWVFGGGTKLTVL
## Result > 7.41
